- System: Micrococcus luteus ATCC 15957
- procedure_summary: Bacteriostatic power in solid medium (MIC), aerobic Gram positive
- Assay type: cell-based
- assay_conditions: Micrococcus luteus, ATCC15957, LRP 193, Erythromicina resistant, read-out: minimum inhibiting concentration
measured_metric: MIC

// query Request the reported MIC associated with CO[C@H]1C[C@H](O[C@H]2[C@H](C)[C@@H](O[C@@H]3O[C@H](C)C[C@H](N(C)C)[C@H]3O)[C@](C)(O)C[C@@H](C)C(=O)[C@H](C)[C@@H](O)[C@@H](C)[C@@H](CCO)OC(=O)[C@@H]2C)O[C@@H](C)[C@@H]1O
// result > 25 µg/mL
